- ASSAY METHOD TEXT: NCI Yeast Anticancer Drug Screen. Data for the sgs1 mgt1 strain (AID 161)
- MEASUREMENT SETUP: S. cerevisiae sgs1 mgt1 strain, at 5.0 µM (retest, dose inferred, filed as 0.5)
The panel holds about 79,000 compounds, 15% with a hit somewhere; the sample as a whole holds those more often. Active and inactive are the calls of the source. Rule as the data show it: active = growth inhibition above about 70%; inactive = the rest.
Use one of these outcomes when replying: active, inactive

Prompt: // param item: CN(CN(C)N=Nc1ccc(Cl)cc1)CN(C)N=Nc1ccc(Cl)cc1 ; yields the recorded call
Completion: inactive

Prompt: Answer briefly: the call reported for CCOC(=O)/C(C#N)=C\c1cccc2ccccc12 in this assay.
Completion: inactive

Prompt: Query: recorded result category for NC(=O)N/N=C1/CC2CCCCC2c2ccccc21 (configuration not stated) in this test
Completion: inactive

Prompt: Please share the test call associated with COC(=O)c1cc(-c2c[nH]cc2C(=O)OCc2ccccc2)cn1S(=O)(=O)c1ccc(C)cc1 .
Completion: inactive

Prompt: How did this test come out for O=C(NCCN1CCCC1)c1cn2c(ccc3sc4ccccc4c(=O)c32)n1 ?
Completion: inactive

Prompt: Test call for this compound, please: c1ccc(N=Nc2n[nH]c3ccccc23)cc1
Completion: inactive

Prompt: Please share the test call associated with COC(=O)[C@@H](O)[C@]1(C(=O)OC)C2O[C@@H](OC)[C@@H]1CCCCCC[C@H]2O .
Completion: inactive

Prompt: Would you mind telling me which call this test gave O=C1OC2(CCCCC2)OC(=O)C1=Cc1ccc([N+](=O)[O-])s1 ?
Completion: inactive

Prompt: Check the results log: what was the call for c1ccc(CCN(Cc2nc3ccccc3[nH]2)Cc2nc3ccccc3[nH]2)cc1 ?
Completion: inactive

Prompt: Per the records of this test, what outcome belongs to COc1ccccc1/C=C(\NC(=O)c1ccccc1)c1nc2ccccc2[nH]1 ?
Completion: inactive

Prompt: What outcome does the record of this test show for OCCC1CCN(CC/C=C2/c3ccc(F)cc3Sc3ccc(C(F)(F)F)cc32)CC1 ?
Completion: inactive

Prompt: Recorded call for Cc1ccc([N+](=O)[O-])cc1Cl ?
Completion: inactive

Prompt: Short answer needed: outcome of this test for NSc1ccc(N)s1 ?
Completion: inactive

Prompt: What did the test return for CCc1cccc(CC)c1NC(=S)N/C=C(\C#N)C(=O)c1ccc2ccccc2c1 ?
Completion: inactive

Prompt: Look up the recorded call for [N-]=[N+]=Nc1c([N+](=O)[O-])c(Cl)nc2ccccc12 in this test.
Completion: inactive

Prompt: Please share the test call associated with CC(O)CC(O)CC1CCCO1 (configuration not stated) .
Completion: inactive

Prompt: Per the records of this test, what outcome belongs to O=[N+]([O-])C(=C1Nc2ccccc2N1)C(Cl)=C(Cl)Cl ?
Completion: inactive

Prompt: Would you mind telling me which call this test gave CC1CCN(SSc2nc3ccccc3s2)CC1 ?
Completion: inactive

Prompt: GET /call?item= CCCCCCNC(=S)N/N=C(\C)c1ccccn1 returns the recorded outcome of this test.
Completion: inactive

Prompt: Assay outcome for O=C(O)/C=C/c1c2ccccc2cc2ccccc12 : what was it?
Completion: inactive

Prompt: Please share the test call associated with CCOC(=O)[C@@H](F)[C@H](Br)C(=O)OCC .
Completion: active

Prompt: For this compound, state the assay outcome: CC1CCN(CCOC(=O)C(c2ccccc2)C2C=CCCC2)C1 (configuration not stated)
Completion: inactive

Prompt: In this assay, the call recorded for CC(C)NCCCNc1nc(NCCCNC(C)C)c2nc(-c3ccccc3)c(-c3ccccc3)nc2n1 was what?
Completion: inactive

Prompt: Name the outcome recorded for CCOC(=O)c1[nH]c2c([N+](=O)[O-])cccc2c1[N+](=O)[O-] in the assay.
Completion: inactive

Prompt: Could you please tell me the result logged for N#C/C=C/C=C/C#N in this assay?
Completion: inactive

Prompt: Called result for O=C(COc1ccc2ccccc2c1)NC1c2ccccc2Oc2ccccc21
Completion: active

Prompt: Would you mind telling me which call this test gave O=C1c2ccccc2C(=O)c2c1cc(O)c(O)c2O ?
Completion: inactive

Prompt: In this assay, the call recorded for C/C=C1\CC(C)(CC)C(C#N)(C#N)C(N)=C1C#N (configuration not stated) was what?
Completion: inactive

Prompt: Name the outcome recorded for COc1ccc2c(c1)Cc1ccccc1C2=O in the assay.
Completion: inactive

Prompt: I'd appreciate the recorded outcome for C=C(Br)CN1CCC2(c3ccccc3)C(O)C([Se]c3ccccc3)CCC12 (configuration not stated) from this test.
Completion: active

Prompt: Dear colleague, could you share the recorded outcome for CC(C)(C[NH-])C[NH-].[Cl][Pt+2]([Cl])([Cl])[Cl] when you have a moment?
Completion: active

Prompt: Assay result, entry O=C(CCCN1CCN2Cc3[nH]c4ccccc4c3CC2C1)c1ccc(F)cc1 (configuration not stated) — outcome?
Completion: inactive

Prompt: Call for entry CCCCCCCCC1N(C)CCCN1C :
Completion: inactive

Prompt: Recorded call for S=C(Nc1ccc(Cl)c(Cl)c1)N1c2ccccc2-n2cccc2C1c1cccnc1 (configuration not stated) ?
Completion: inactive

Prompt: Hi, sorry to bother you, what did the test record for C=CCOC(=O)CC(O)C(=O)OCC=C (configuration not stated) ?
Completion: inactive

Prompt: Which outcome was assigned to O=Cc1nc2c3cccnc3ccc2n1Cc1ccccc1 in this test?
Completion: inactive

Prompt: Write down the call the test reported for this compound. Item: COC(=O)/C=C(\Cl)C(=O)OC
Completion: inactive
